Test system: VZV
Protocol: in vitro antiviral activity against VZV
Type: cell-based
Condition Label: Human alphaherpesvirus 3; VZV, in vitro
Parameter Measured: EC50
Your answer should be a number followed by the unit of measure.

EC50 in this record for Nc1ccn(C[C@@H](CO)OCP(=O)(O)O)c(=O)n1 [Cidofovir, cidofovir, reference compound] : 500 nM

###

Test system: HHV-6
Protocol: in vitro antiviral activity against HHV-6
Format: cell-based
Condition Label: HHV-6, in vitro
Parameter Measured: pEC50
One number for each entry, as −log10 of the molar value.

INSERT INTO results (compound, parameter_measured, observed_value) VALUES
  ('CCCCCCCCCCCCCCCCOCCCOP(=O)(O)CO[C@H](CO)Cn1ccc(N)nc1=O [CMX001]', 'pEC50', 8.15);

Could you now look at the following compound, please?
Summary: Nc1ccn(C[C@@H](CO)OCP(=O)(O)O)c(=O)n1 [Cidofovir, cidofovir, reference compound] , HHV-6, pEC50 = 5.27
